Value source: the supplement of paper PMC10126150

Let's look at some sequences and their measured switch fluorescence ratio.
System: ATP;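 further: ATP exposure 15 min at 22 °C before imaging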
Assay details: switch fluorescence ratio, 500 uM ATP over buffer (Cy3 cluster intensity, sum of 5 cycles each) (fold (ratio)); higher = stronger signal-on switching upon ATP binding; sequences stand for … in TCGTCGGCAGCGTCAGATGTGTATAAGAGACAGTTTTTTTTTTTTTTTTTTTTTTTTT…TC
Cond: aptamer strand: ATP DNA aptamer (quencher-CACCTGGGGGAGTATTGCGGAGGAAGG + anchor), 100 nM annealed; ATP concentration: 500 uM

>  <Record sequence>
TCGCGAGAGC

>  <switch fluorescence ratio>
1

$$$$
>  <Record sequence>
GCTTTAGAGA

>  <switch fluorescence ratio>
0.985

$$$$
>  <Record sequence>
TGGGAGGGTC

>  <switch fluorescence ratio>
1.12

$$$$
>  <Record sequence>
TGAGGCTGTT

>  <switch fluorescence ratio>
1

$$$$
>  <Record sequence>
CTATCACAGG

>  <switch fluorescence ratio>
2.01

$$$$
>  <Record sequence>
CTAACGGAAT

>  <switch fluorescence ratio>
1.7

$$$$
>  <Record sequence>
GTCGTTTTGG

>  <switch fluorescence ratio>
0.99

$$$$
>  <Record sequence>
AGACGGGATG

>  <switch fluorescence ratio>
0.973

$$$$
>  <Record sequence>
TGGGGGTATG

>  <switch fluorescence ratio>
1

$$$$
>  <Record sequence>
TATTGGTCTA

>  <switch fluorescence ratio>
1.04

$$$$
>  <Record sequence>
ACATGAATTT

>  <switch fluorescence ratio>
1

$$$$
>  <Record sequence>
TAGGGAATTG

>  <switch fluorescence ratio>
1.01

$$$$
>  <Record sequence>
TTTGAAGGTA

>  <switch fluorescence ratio>
1.01

$$$$
>  <Record sequence>
AGTTGGGAAC

>  <switch fluorescence ratio>
1.01

$$$$
>  <Record sequence>
ATTTGGTTGG

>  <switch fluorescence ratio>
0.987

$$$$
>  <Record sequence>
GAAAGATACC

>  <switch fluorescence ratio>
1.03

$$$$
>  <Record sequence>
GATGGTTTCC

>  <switch fluorescence ratio>
1.02

$$$$
>  <Record sequence>
ATTACTAGGA

>  <switch fluorescence ratio>
1

$$$$
>  <Record sequence>
TTTTAGGTCC

>  <switch fluorescence ratio>
0.977

$$$$
>  <Record sequence>
AGTAGGGCTC

>  <switch fluorescence ratio>
1

$$$$
>  <Record sequence>
TTAAGTTGGG

>  <switch fluorescence ratio>
0.989

$$$$
>  <Record sequence>
TGGGATGCTT

>  <switch fluorescence ratio>
0.981

$$$$
>  <Record sequence>
CAAAGGAAGC

>  <switch fluorescence ratio>
1.02

$$$$
>  <Record sequence>
TACCTTCGTT

>  <switch fluorescence ratio>
1.04

$$$$
>  <Record sequence>
GACGGTAGTA

>  <switch fluorescence ratio>
1.02

$$$$
>  <Record sequence>
CGGCTGGCGA

>  <switch fluorescence ratio>
1.01

$$$$
>  <Record sequence>
CCACACTGAT

>  <switch fluorescence ratio>
1.02

$$$$
>  <Record sequence>
GGTCGAGCTA

>  <switch fluorescence ratio>
0.996

$$$$
>  <Record sequence>
GCCTTTCTGA

>  <switch fluorescence ratio>
0.986

$$$$
>  <Record sequence>
TCGTTGTTAT

>  <switch fluorescence ratio>
1

$$$$
>  <Record sequence>
TTGGGGAGAC

>  <switch fluorescence ratio>
1.07

$$$$
>  <Record sequence>
TGCCCCTGGC

>  <switch fluorescence ratio>
0.978

$$$$
>  <Record sequence>
TTTCTATACG

>  <switch fluorescence ratio>
1.02

$$$$
>  <Record sequence>
ATTTATTCCG

>  <switch fluorescence ratio>
1.01

$$$$
>  <Record sequence>
CGGAGACGTG

>  <switch fluorescence ratio>
1

$$$$
>  <Record sequence>
GATTGAGCGT

>  <switch fluorescence ratio>
0.996

$$$$
>  <Record sequence>
AAGCTGTTTC

>  <switch fluorescence ratio>
1.01

$$$$
>  <Record sequence>
TTTATAAAAA

>  <switch fluorescence ratio>
0.998

$$$$
>  <Record sequence>
AATAAACAGC

>  <switch fluorescence ratio>
1.01

$$$$
>  <Record sequence>
GATGTAACTT

>  <switch fluorescence ratio>
1.01

$$$$
>  <Record sequence>
TCCGAATGCG

>  <switch fluorescence ratio>
1.11

$$$$
>  <Record sequence>
TTTGCATTTG

>  <switch fluorescence ratio>
1.03

$$$$
>  <Record sequence>
ACGTTCCGAG

>  <switch fluorescence ratio>
2.54

$$$$
